# testName: Inhibition of calf thymus DNA polymerase alpha
# Set-up: species or system Bos taurus
observable: Ki

Exercise: Suppose we examine the compound CCc1cc(Nc2cc(=O)n(CCCCN3CCN(c4c(F)cc5c(=O)c(C(=O)O)cn(C6CC6)c5c4F)CC3C)c(=O)[nH]2)ccc1C (stereo unspecified) ; what Ki value has been reported?
Key: > 482 µM

---

# testName: Cytotoxicity against human MRC5 cells
# Type: cell-based
observable: CC50

Answered examples (2):
CC1CN(c2c(F)cc3c(=O)c(C(=O)O)cn(C4CC4)c3c2F)CCN1 (stereo not drawn) :: > 80 µg/mL
CCc1cc(Nc2cc(=O)n(CCCCO)c(=O)[nH]2)ccc1C :: 46 µg/mL

Exercise: Suppose we examine the molecule CCc1cc(Nc2cc(=O)n(CCCCN3CCN(c4c(F)cc5c(=O)c(C(=O)O)cn(C6CC6)c5c4F)CC3C)c(=O)[nH]2)ccc1C (stereo not drawn) ; what CC50 value has been reported?
Key: > 80 µg/mL

---

# testName: Inhibition of Bacillus subtilis DNA polymerase 3E
pKi: −log10 of the molar value.
observable: pKi

Exercise: Suppose we examine the molecule CCc1cc(Nc2cc(=O)n(CCCCN3CCN(c4c(F)cc5c(=O)c(C(=O)O)cn(C6CC6)c5c4F)CC3C)c(=O)[nH]2)ccc1C (stereo unspecified) ; what pKi value has been reported?
Key: < 3.32

---

# assayedSystem: DNA polymerase subunit gamma-1 (Homo sapiens)
# Sequence (P54098 whole entry): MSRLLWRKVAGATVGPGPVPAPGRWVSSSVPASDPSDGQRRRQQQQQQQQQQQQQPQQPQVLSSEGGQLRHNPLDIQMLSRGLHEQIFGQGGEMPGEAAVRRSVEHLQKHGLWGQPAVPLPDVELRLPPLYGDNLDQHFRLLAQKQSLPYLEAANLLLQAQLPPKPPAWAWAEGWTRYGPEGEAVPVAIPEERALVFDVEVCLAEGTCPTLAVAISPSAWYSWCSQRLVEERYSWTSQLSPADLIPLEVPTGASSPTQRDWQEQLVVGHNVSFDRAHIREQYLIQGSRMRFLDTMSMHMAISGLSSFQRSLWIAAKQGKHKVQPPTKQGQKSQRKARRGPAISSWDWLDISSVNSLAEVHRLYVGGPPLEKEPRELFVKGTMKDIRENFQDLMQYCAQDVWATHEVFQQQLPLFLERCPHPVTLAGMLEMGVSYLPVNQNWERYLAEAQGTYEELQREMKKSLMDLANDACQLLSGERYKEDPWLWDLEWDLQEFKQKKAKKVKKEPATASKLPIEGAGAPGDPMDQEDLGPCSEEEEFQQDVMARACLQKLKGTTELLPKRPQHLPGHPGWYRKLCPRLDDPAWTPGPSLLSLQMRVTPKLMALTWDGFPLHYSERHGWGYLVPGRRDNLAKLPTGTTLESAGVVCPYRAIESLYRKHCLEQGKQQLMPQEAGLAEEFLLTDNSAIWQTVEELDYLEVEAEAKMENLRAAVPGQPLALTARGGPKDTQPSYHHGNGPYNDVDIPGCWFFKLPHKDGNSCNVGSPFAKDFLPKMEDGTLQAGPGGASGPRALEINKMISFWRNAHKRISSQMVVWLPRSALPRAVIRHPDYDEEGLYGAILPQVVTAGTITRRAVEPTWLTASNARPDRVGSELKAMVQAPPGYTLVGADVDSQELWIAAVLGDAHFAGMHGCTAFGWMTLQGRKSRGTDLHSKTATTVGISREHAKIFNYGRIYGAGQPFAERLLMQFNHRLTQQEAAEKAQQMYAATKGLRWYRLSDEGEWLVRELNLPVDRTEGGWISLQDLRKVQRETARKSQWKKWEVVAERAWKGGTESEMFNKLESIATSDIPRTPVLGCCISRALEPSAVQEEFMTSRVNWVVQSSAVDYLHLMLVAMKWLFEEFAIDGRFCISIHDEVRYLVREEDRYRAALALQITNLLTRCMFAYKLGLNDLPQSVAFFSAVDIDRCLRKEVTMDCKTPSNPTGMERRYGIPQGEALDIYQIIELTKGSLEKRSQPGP
# testName: Inhibition of human DNA polymerase gamma
observable: Ki (µM)
Value expressed in µM; do not type the unit.

Exercise: Suppose we examine the compound CCc1cc(Nc2cc(=O)n(CCCCN3CCN(c4c(F)cc5c(=O)c(C(=O)O)cn(C6CC6)c5c4F)CC3C)c(=O)[nH]2)ccc1C (configuration not stated) ; what Ki value has been reported?
Key: 684
